What pKi was measured for each of the following?
- measurement-target: neuronal nicotinic cholinergic channel receptor
- method-summary: [3H]-cytisine binding to neuronal nicotinic cholinergic channel receptors, crude synaptic membranes from whole rat brain
- reported-conditions: [3H]-cytisine (1.25 nM), whole rat brain membranes, 4° C., 60 min
Structures can show the parent of a compound that is named as a salt.
API: returns pKi as number; meaning -log10 of concentration in mol/L.

In: Read off the recorded pKi for Fc1cccc(OC[C@@H]2CCCN2)c1 [Example 5, hydrochloride]
Out: 7.76

In: Read off the recorded pKi for CN1CCC[C@H]1COc1cc(F)cc(F)c1 [Example 8, hydrochloride]
Out: 7.80

In: Read off the recorded pKi for CN1CCC[C@H]1COc1cccc(C#N)c1 [Example 19, hydrochloride]
Out: 7.19

In: Read off the recorded pKi for CN1CCC[C@H]1COc1ccc(Cl)c(Cl)c1 [Example 16, hydrochloride]
Out: 6.95

In: Read off the recorded pKi for N#Cc1cccc(OC[C@@H]2CCCN2)c1 [Example 18, hydrochloride]
Out: 7.74

In: Read off the recorded pKi for CN1CCC[C@@H]1COc1cccc([N+](=O)[O-])c1 [Example 4]
Out: 6.88

In: Read off the recorded pKi for Fc1cccc(OC[C@@H]2CCCN2)c1F [Example 11, hydrochloride]
Out: 7.13

In: Read off the recorded pKi for CN1CCC[C@H]1COc1cccc(F)c1 [Example 6, hydrochloride]
Out: 8.29

In: Read off the recorded pKi for CN1CCC[C@H]1COc1cccc(Cl)c1 [Example 15, hydrochloride]
Out: 7.42

In: Read off the recorded pKi for c1ccc(OC[C@@H]2CCCN2)cc1 [Example 21, hydrochloride]
Out: 6.97

In: Read off the recorded pKi for Fc1cc(F)cc(OC[C@@H]2CCCN2)c1 [Example 7, hydrochloride]
Out: 7.65

In: Read off the recorded pKi for CC(=O)Nc1cccc(OC[C@@H]2CCCN2)c1 [Example 17, hydrochloride]
Out: 6.85

In: Read off the recorded pKi for CN1CCC[C@H]1COc1ccc(F)c(F)c1 [Example 14, hydrochloride]
Out: 7.74

* * *

What pKi was measured for each of the following?
- measurement-target: neuronal nicotinic cholinergic channel receptor
- method-summary: [3H]-cytisine binding to neuronal nicotinic cholinergic channel receptors, crude synaptic membranes from whole rat brain
- reported-conditions: [3H]-cytisine (1.25 nM), whole rat brain membranes, 4° C., 60 min
- Experimental: Binding of [^3 H]-cytisine ([^3 H]-CYT) to nicotinic receptors was accomplished using crude synaptic membrane preparations from whole rat brain (Pabreza et al., Molecular Pharmacol., 1990, 39:9). Washed membranes were stored at -80° C. prior to use. Frozen aliquots were slowly thawed and resuspended in 20 volumes of buffer (containing: 120 mM NaCl, 5 mM KCl, 2 mM MgCl2, 2 mM CaCl2 and 50 mM Tris-Cl, pH 7.4 @4° C.). […] The filters are counted in 4 mL of Ecolume® (ICN).
Where a name gives a salt, the structure may show the parent alone.
API: returns pKi as number; meaning -log10 of concentration in mol/L.

In: Read off the recorded pKi for CN1CCC[C@H]1COc1cccc([N+](=O)[O-])c1 [Example 2, hydrochloride]
Out: 8.05

In: Read off the recorded pKi for Fc1cccc(OC[C@H]2CCCN2)c1 [Example 9, hydrochloride]
Out: 7.94

In: Read off the recorded pKi for Cl.O=[N+]([O-])c1cccc(OC[C@H]2CCCN2)c1 [Example 3, hydrochloride]
Out: 8.60

In: Read off the recorded pKi for Fc1ccc(OC[C@@H]2CCCN2)cc1F [Example 13, hydrochloride]
Out: 7.76

In: Read off the recorded pKi for CN1CCC[C@H]1COc1cccc(F)c1F [Example 12, hydrochloride]
Out: 7.09

In: Read off the recorded pKi for Cl.O=[N+]([O-])c1cccc(OC[C@@H]2CCCN2)c1 [Example 1, hydrochloride]
Out: 8.54

In: Read off the recorded pKi for CN1CC[C@@H]1COc1cccc([N+](=O)[O-])c1 [Example 23, hydrochloride]
Out: 7.54

In: Read off the recorded pKi for CN1CCC[C@@H]1COc1cccc(F)c1 [Example 10, hydrochloride]
Out: 7.04

In: Read off the recorded pKi for O=[N+]([O-])c1cccc(OC[C@@H]2CCN2)c1 [Example 22, methanesulfonate]
Out: 8.17
